Assay System: Tyrosine-protein kinase JAK3 (Homo sapiens)
Sequence (P52333 whole entry): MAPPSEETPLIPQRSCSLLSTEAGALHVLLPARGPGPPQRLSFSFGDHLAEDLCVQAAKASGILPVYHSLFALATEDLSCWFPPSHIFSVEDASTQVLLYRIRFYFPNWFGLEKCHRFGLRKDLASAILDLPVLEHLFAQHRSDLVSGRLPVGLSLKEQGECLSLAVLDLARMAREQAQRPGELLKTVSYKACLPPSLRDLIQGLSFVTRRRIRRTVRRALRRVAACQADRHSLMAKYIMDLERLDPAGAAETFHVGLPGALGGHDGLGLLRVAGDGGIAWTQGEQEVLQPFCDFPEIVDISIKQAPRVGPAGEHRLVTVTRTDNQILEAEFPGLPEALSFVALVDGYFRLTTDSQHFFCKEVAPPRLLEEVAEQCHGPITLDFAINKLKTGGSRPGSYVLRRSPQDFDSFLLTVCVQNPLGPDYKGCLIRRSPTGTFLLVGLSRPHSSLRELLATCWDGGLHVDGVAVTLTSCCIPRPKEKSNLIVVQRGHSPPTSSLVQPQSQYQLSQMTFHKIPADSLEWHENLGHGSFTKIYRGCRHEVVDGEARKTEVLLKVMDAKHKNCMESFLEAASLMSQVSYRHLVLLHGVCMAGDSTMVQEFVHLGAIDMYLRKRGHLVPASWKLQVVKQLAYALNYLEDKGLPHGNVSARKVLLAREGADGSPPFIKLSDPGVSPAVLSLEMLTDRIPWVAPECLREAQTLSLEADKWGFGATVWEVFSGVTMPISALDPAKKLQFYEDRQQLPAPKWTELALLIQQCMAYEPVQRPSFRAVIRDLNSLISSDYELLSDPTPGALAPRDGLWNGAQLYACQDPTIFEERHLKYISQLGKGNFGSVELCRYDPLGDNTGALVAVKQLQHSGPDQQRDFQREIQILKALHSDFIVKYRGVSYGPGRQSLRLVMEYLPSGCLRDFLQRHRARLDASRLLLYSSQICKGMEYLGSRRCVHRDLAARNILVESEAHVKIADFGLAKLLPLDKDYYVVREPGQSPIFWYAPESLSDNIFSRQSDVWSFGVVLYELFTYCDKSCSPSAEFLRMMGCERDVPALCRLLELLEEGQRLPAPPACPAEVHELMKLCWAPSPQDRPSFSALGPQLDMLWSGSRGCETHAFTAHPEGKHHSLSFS
Measured Parameter: IC50 (µM)

Cn1c(C(=O)NCCCN2CCOCC2)cc2c(-c3ccc(NC(=O)[C@@H]4CCCN4C(=O)OC(C)(C)C)cc3)ncnc21 : 0.507
Cn1c(C(=O)NCCN2CCCC2)cc2c(-c3ccc(NC(=O)[C@@H]4CCCN4C(=O)OC(C)(C)C)cc3)ncnc21 : 0.716

###

Protocol Notes: in vivo
Applied Conditions: Sprague-Dawley, rat, po, 10 mg/kg
Measured Parameter: AUC(0-t) at 24 h (ng·h/mL)
Reply with just the number (in ng·h/mL).

# input Name the recorded AUC(0-t) at 24 h for "Cn1c(C(=O)NCCCN2CCOCC2)cc2c(-c3ccc(NC(=O)C(C)(C)C)cc3)ncnc21" .
# output 36300
